# TGT: Proteasome subunit beta type-8 (Homo sapiens)
# Sequence (P28062 whole entry): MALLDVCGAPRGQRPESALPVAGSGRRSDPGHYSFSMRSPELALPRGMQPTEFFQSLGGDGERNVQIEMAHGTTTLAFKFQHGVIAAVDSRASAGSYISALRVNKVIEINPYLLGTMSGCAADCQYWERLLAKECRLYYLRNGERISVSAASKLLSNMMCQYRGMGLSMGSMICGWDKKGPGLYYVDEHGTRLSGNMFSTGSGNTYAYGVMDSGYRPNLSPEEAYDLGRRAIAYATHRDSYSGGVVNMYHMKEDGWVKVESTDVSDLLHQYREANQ
# RUN DESCRIPTION: Inhibition of human 20S proteasome subunit beta-5i using Ac-ANW-AMC as substrate and measured every 30 secs for 30 mins by microtiter plate assay
EXPERIMENTAL READOUT: pIC50
Note on pIC50: it is the negative log10 of concentration, concentration in mol/L.

Please provide the recorded pIC50 for Cc1cc(C(=O)N[C@@H](CC(=O)N2CCC[C@@H]2c2ccccc2)C(=O)N[C@@H](C)C(=O)NCc2c(F)cccc2F)no1 , tested on Proteasome subunit beta type-8 (Homo sapiens). 4.70

Please provide the recorded pIC50 for Cc1cc(C(=O)N[C@@H](CC(=O)N2CCCC[C@@H]2C)C(=O)N[C@@H](C)C(=O)NCc2ccc(F)cc2F)no1 , tested on Proteasome subunit beta type-8 (Homo sapiens). 7.59
